- assay_name: Reversal of ABCG2-mediated multidrug resistance in human MCF-7/MX cells assessed as potentiation of SN-38-induced cytotoxicity incubated for 72 hrs by MTT assay
measurement_label: EC50 (nM)
Quick note: give the figure in nM, leave out the unit.

EC50 lookup needed for CC1CCc2c(sc3nc(-c4cccnc4)nc(N4CCN(C(C(N)=O)c5ccccc5)CC4)c23)C1 (stereo unspecified) , thanks. 2730

###

- assay_name: Reversal of ABCC1 (unknown origin)-mediated multidrug resistance in MDCK2 cells co-expressing MRP1 (unknown origin) assessed as potentiation of daunorubicin-induced cytotoxicity incubated for 72 hrs by MTT assay
measurement_label: pEC50
pEC50 is defined as minus the log10 of a concentration measured in mol/L.

So what does the record say about pEC50 for CC1CCc2c(sc3nc(-c4cccnc4)nc(N4CCN(C(C(N)=O)c5ccccc5)CC4)c23)C1 (stereo unspecified) ? 6.14

###

- assay_name: Reversal of ABCC1-mediated multidrug resistance in human H69AR cells assessed as potentiation of daunorubicin-induced cytotoxicity incubated for 72 hrs by MTT assay
measurement_label: EC50
Param answer (str): number followed by unit.

// lookup EC50 for CC1CCc2c(sc3nc(-c4cccnc4)nc(N4CCN(C(C(N)=O)c5ccccc5)CC4)c23)C1 (stereo unspecified) 2690 nM

###

- assay_name: Reversal of ABCG2 (unknown origin)-mediated multidrug resistance in MDCK2 cells co-expressing BCRP (unknown origin) assessed as potentiation of SN-38-induced cytotoxicity incubated for 72 hrs by MTT assay
measurement_label: EC50 (nM)
Write the number in nM without appending the unit.

Find the recorded EC50 belonging to CC1CCc2c(sc3nc(-c4cccnc4)nc(N4CCN(C(C(N)=O)c5ccccc5)CC4)c23)C1 (stereo unspecified) and report it. 1310

###

- assay_name: Reversal of ABCB1 (unknown origin)-mediated multidrug resistance in MDCK2 cells co-expressing MDR1 (unknown origin) assessed as potentiation of daunorubicin-induced cytotoxicity incubated for 72 hrs by MTT assay
measurement_label: pEC50
// returns pEC50 (minus log10 of molar concentration), number only

Form field: reported pEC50 of CC1CCc2c(sc3nc(-c4cccnc4)nc(N4CCN(C(C(N)=O)c5ccccc5)CC4)c23)C1 (stereo unspecified) 6.44
